Cited source for all entries: patent US10662174B2

- TARGET_SYSTEM: BTK kinase (Homo sapiens, UniProt Q06187)
- Construct: purchased Invitrogen PR5442A
- Sequence (Q06187 whole entry): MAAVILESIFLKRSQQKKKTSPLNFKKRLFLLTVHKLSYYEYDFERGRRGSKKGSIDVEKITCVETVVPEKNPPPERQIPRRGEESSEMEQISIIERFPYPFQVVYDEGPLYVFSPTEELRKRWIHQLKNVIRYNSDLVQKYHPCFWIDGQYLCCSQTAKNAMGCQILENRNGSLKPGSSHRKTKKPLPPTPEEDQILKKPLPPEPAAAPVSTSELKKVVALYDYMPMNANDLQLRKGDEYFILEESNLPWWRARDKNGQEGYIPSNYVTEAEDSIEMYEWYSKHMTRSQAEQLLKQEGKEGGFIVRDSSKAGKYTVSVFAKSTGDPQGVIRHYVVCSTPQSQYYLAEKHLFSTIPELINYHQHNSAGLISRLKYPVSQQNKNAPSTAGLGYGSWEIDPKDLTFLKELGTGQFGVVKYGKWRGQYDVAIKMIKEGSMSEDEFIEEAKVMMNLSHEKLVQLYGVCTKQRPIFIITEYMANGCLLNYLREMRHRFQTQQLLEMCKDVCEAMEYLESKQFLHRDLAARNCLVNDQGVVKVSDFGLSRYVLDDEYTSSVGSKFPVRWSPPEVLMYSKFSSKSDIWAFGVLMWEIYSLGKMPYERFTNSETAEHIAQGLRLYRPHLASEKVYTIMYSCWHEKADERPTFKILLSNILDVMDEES
- EXPERIMENTAL_PROTOCOL: Assay of inhibition activity of BTK in vitro (HTRF kit, read on Envision)
- Type: biochemical
- TEST_CONTEXT: 1.0 nM BTK, 1 μM biotin-TK1 peptide, 20 μM ATP, 23° C., tested by Envision; read-out: BTK IC50
- Protocol: Assay of Inhibition Activity of BTK In Vitro The inhibition of compounds on BTK kinase was evaluated by […] detected by Envision, using the IC50 value of the compounds as index. BTK kinase: Invitrogen-PR5442A HTRF Assay Kit: Cisbio-62TKOPEJ […] The reaction was stopped by adding 10 μL Detection Reagent to each well of Assay plate, and the plate was left in incubator at 23° C. for 1 h before read on Envision. Data analysis: The IC50 values of compounds were calculated using Excel fit.
MEASURED_PARAMETER: IC50

MOLECULE | TARGET_SYSTEM | IC50
C=CC(=O)Nc1cccc(-n2cnc3cnc(Nc4ccc(OCCOC)cc4)nc32)c1 | BTK kinase (Homo sapiens, UniProt Q06187) | 1000 to 10000 nM
C=CC(=O)N1CCC[C@@H](n2nc(-c3ccc(C4OCCO4)cc3)c3c(N)n[nH]c(=O)c32)C1 | BTK kinase (Homo sapiens, UniProt Q06187) | < 100 nM
C=CC(=O)N1CC[C@@H](n2nc(-c3ccc(Oc4ccccc4)cc3)c3c(N)n[nH]c(=O)c32)C1 | BTK kinase (Homo sapiens, UniProt Q06187) | < 100 nM
C=CS(=O)(=O)N1CCC[C@@H](n2nc(-c3ccc(Oc4ccccc4)cc3)c3c(N)n[nH]c(=O)c32)C1 | BTK kinase (Homo sapiens, UniProt Q06187) | < 100 nM
C=CC(=O)N1CCC[C@@H](n2nc(-c3ccc(OC4CCCCC4)cc3)c3c(N)n[nH]c(=O)c32)C1 | BTK kinase (Homo sapiens, UniProt Q06187) | < 100 nM
C=CC(=O)N1CCC[C@@H](Nc2ncnc3[nH]c(=O)c(-c4ccccc4)cc23)C1 | BTK kinase (Homo sapiens, UniProt Q06187) | 1000 to 10000 nM

Sure, the documented IC50 for C=CC(=O)N1CCCCC(n2nc(-c3ccc(Oc4ccccc4)cc3)c3c(N)n[nH]c(=O)c32)C1 (centres unmarked) is < 100 nM

Sure, the documented IC50 for COCCOc1ccc(Nc2ncc3[nH]c(CCN)nc3n2)cc1 is 1000 to 10000 nM

* * *

- TARGET_SYSTEM: BTK kinase (Homo sapiens, UniProt Q06187)
- Construct: purchased Invitrogen PR5442A
- EXPERIMENTAL_PROTOCOL: Assay of inhibition activity of BTK in vitro (HTRF kit, read on Envision)
- Type: biochemical
pIC50: −log10 of the molar value.
MEASURED_PARAMETER: pIC50

COMPOUND | VALUE
CN1CCN(c2ccc(Nc3cc(-c4ccc5c(c4)c(C(=O)c4ccc(C6CC6)cc4F)cn5C)cn(C)c3=O)nc2)CC1 | 5.00 to 6.00
CN1CCNC(=O)C1c1ccc(Nc2ccc(-c3ccc4c(c3)c(C(=O)c3ccc(C5CC5)cc3F)cn4C)n(C)c2=O)cc1 (stereo not drawn) | 6.00 to 7.00

We now examine a further compound.
Sure, the documented pIC50 for CN1CCN(C)[C@H](c2ccc(Nc3nc(-c4ccc5c(c4)c(C(=O)c4ccc(C6CC6)cc4F)cn5C)cn(C)c3=O)cc2)C1=O is 5.00 to 6.00
